- targetOrTestSystem: T1, AFP158/HLA-A*02:01 complex (human)
- T1 construct: biotinylated on the BSP by BirA for ELISA and panning; also called biotinylated AFP158/HLA-A*02:01 complex; Bio-AFP158
- experimentNotes: SPR; vs AS170036 VL1VH1
experimentalEndpoint: Affinity increase

AS170036 VL1VH1-VHG56N (scFv) scFv: QSALTQPRSVSGSPGQSVTISCAGTSSDVGSENYVSWYQQHPGKAPKLMIYQVNKRASGVPDRFSGSKSGNTASLTISGLQAEDEADYYCASYRSSDHNIVFGGGTKLTVLGGGGSGGGGSGGGGSEVQLVESGGGLVQPGGSLRLSCAASGFTFSSYAMSWVRQAPGKGLEWVSTINSGTNSPYYADSVKGRFTISRDNSKNTLYLQMNSLRAEDTAVYYCAKNFFDGSWFLGPPAMDYWGQGTLVTVSSHHHHHH    > 2 fold

Now let's try a different one.
Exam item: May I ask what Affinity increase has been recorded for AS170036 VL1VH1-VHG108A (scFv) scFv: QSALTQPRSVSGSPGQSVTISCAGTSSDVGSENYVSWYQQHPGKAPKLMIYQVNKRASGVPDRFSGSKSGNTASLTISGLQAEDEADYYCASYRSSDHNIVFGGGTKLTVLGGGGSGGGGSGGGGSEVQLVESGGGLVQPGGSLRLSCAASGFTFSSYAMSWVRQAPGKGLEWVSTINSGTGSPYYADSVKGRFTISRDNSKNTLYLQMNSLRAEDTAVYYCAKNFFDGSWFLAPPAMDYWGQGTLVTVSSHHHHHH ?
Marked response: > 2 fold
